List of IC50 values.
# Study System: protein-protein interaction between Kras and SOS1 (biotin-tagged human Kras loaded with GDP, His-tagged human SOS1) (Homo sapiens (Human), UniProt P01116, G12D)
# Assay Remarks: Protein-protein interaction inhibition between Kras and SOS1 (KrasG12D-SOS PPI) using AlphaScreen;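 further: kras produced in E. coli, Ni-coupled donor beads and streptavidin acceptor beads, excitation 680 nm with emission detected at 520–620 nm via singlet oxygen transfer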
# Format: biochemical
# Condition Notes: AlphaScreen; biotin-tagged human Kras loaded with GDP, His-tagged human SOS1; read-out: KRAS G12D-SOS PPI IC50
Numbered stars: 1 amine (or outer) side, 2 acyl side, 3 side chain; on linkers, the order of the positions; unused ones are H or OH. Bridge positions count the residues as written; N and C are the ends. Square brackets hold non-standard residues; d marks the D form. Peptide text beside a SMILES is read from it. * marks the point of attachment. hPhe(3,5-F2-4-CF3) = N[C@@H](CCc1cc(F)c(C(F)(F)F)c(F)c1)C(=O)O; hPhe(3-Cl-4-CF3) = N[C@@H](CCc1ccc(C(F)(F)F)c(Cl)c1)C(=O)O; NEtPhe(4-CF3) = CCN[C@@H](Cc1ccc(C(F)(F)F)cc1)C(=O)O; NMePhe(4-Me) = CN[C@@H](Cc1ccc(C)cc1)C(=O)O; NMedβ3hAla = C[C@H](CC(=O)[*:2])N(C)[*:1]; NMeI = CC[C@H](C)[C@H](NC)C(=O)O; NMeD = CN[C@@H](CC(=O)O)C(=O)O; NMeL = CN[C@@H](CC(C)C)C(=O)O; NMeA = CN[C@@H](C)C(=O)O; NMeAib = CNC(C)(C)C(=O)O; Pyrrolidide = C1CCN(*)C1; Ac5c = NC1(C(=O)O)CCCC1; Aze = O=C(O)[C@@H]1CCN1; Sar = CNCC(=O)O

| Molecule | IC50 / nM |
| --- | --- |
| CC[C@H](C)[C@@H]1NC(=O)[C@H](CC(C)C)N(C)C(=O)C[C@@H](C(=O)N2CCCC2)N(C)C(=O)[C@H]([C@@H](C)CC)N(C)C(=O)C2(CCCC2)NC(=O)[C@@H]2CCCN2C(=O)[C@H](CCc2cc(F)c(C(F)(F)F)c(F)c2)NC(=O)CN(C)C(=O)[C@H](Cc2ccc(C(F)(F)F)cc2)N(CC)C(=O)[C@@H]2CCN2C(=O)[C@H](C)N(C)C1=O [Compound 1175] ([NMeL]I[NMeA][Aze][NEtPhe(4-CF3)][Sar][hPhe(3,5-F2-4-CF3)]P[Ac5c][NMeI][NMeD]-Pyrrolidide; lactam N-11) | 0.79 |
| CC[C@H](C)[C@@H]1NC(=O)[C@H](C)N(C)C(=O)C[C@@H](C)N(C)C(=O)[C@H](CC(C)C)NC(=O)C(C)(C)N(C)C(=O)[C@H](CC(C)C)NC(=O)[C@H](CCc2ccc(C(F)(F)F)c(Cl)c2)NC(=O)CN(C)C(=O)[C@H](Cc2ccc(C)cc2)N(C)C(=O)CN(C)C(=O)CN(C)C1=O [Compound 1398] (cyclo(I[Sar][Sar][NMePhe(4-Me)][Sar][hPhe(3-Cl-4-CF3)]L[NMeAib]L[NMedβ3hAla][NMeA])) | 6.6 |

Cited source for all entries: patent US20240148821A1
